Reported residual activity values for a set of compounds
Target: MAPK13 (human) (UniProt O15264)
Sequence (O15264 whole entry, looked up): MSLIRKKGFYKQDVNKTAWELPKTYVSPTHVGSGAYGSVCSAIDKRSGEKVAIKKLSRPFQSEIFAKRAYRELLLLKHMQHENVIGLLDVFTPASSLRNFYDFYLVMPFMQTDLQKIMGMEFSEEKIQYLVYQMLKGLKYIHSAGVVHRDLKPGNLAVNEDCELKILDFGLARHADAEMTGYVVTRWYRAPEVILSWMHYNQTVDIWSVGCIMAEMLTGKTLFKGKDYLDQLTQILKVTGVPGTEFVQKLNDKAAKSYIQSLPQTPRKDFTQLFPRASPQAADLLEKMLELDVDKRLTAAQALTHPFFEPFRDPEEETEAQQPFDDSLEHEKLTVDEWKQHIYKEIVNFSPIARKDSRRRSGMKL
Experiment: radiometric filter-binding kinase assay, Kinase HotSpot
Settings: compound 0.5 µM; ATP 10 µM

| compound | residual activity / % |
| --- | --- |
| COc1cc2ncc(-c3ccccc3)nc2cc1OC | 89.6 |
| COc1cc2ncnc(N3CCN(C(=O)Nc4ccc(Oc5ccccc5)cc4)CC3)c2cc1OC | 104 |
| CCn1cnc2c(Nc3cccc(Cl)c3)nc(N[C@@H]3CCCC[C@@H]3N)nc21 | 102 |
| CN([C@@H](Cc1ccc(OS(=O)(=O)c2cccc3cnccc23)cc1)C(=O)N1CCN(c2ccccc2)CC1)S(=O)(=O)c1cccc2cnccc12 | 102 |
| CC(=O)O/N=C1\C(=C2\C(=O)Nc3cc(Br)ccc32)Nc2ccccc21 | 91.5 |
| O=C1Nc2ccccc2/C1=C1/Nc2ccccc2/C1=N\OCCC(O)CO (stereo unspecified) | 94.8 |
| CCN(CC)CCCCN1c2ccccc2Oc2ccc(Cl)cc21 | 94.3 |
| O=C(O)/C=C/c1cc(Br)c(Br)c(Br)c1Br | 98.5 |
| Oc1ccc(Nc2nc(-c3ccc(Cl)cc3)cs2)cc1 | 107 |
| O=C1NC(=O)C(c2c[nH]c3ccccc23)=C1c1c[nH]c2ccccc12 | 104 |
| Cn1nc2c3c(cccc31)C(=O)c1ccccc1-2 | 106 |

====

Biological target: UniProtKB O96017
Sequence (O96017 whole entry, looked up): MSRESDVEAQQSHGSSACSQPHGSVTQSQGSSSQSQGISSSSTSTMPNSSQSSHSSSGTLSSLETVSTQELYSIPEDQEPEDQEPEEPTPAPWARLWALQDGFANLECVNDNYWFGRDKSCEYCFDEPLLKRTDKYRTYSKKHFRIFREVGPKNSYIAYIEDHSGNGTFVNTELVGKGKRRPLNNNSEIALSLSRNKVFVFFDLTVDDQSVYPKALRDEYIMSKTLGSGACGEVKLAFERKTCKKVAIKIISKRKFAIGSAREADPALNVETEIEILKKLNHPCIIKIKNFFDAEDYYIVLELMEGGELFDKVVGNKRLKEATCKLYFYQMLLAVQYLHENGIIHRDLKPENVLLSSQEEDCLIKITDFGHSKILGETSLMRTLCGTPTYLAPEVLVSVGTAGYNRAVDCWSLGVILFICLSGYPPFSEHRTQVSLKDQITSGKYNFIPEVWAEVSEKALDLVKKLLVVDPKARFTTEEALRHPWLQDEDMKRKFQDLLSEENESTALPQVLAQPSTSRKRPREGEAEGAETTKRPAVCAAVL
Assay: radiometric filter-binding kinase assay, Kinase HotSpot
Settings: compound 0.5 µM; ATP 10 µM

| smiles-repr | residual activity [%] |
| --- | --- |
| COc1ccc(CNC(=O)Nc2ncc([N+](=O)[O-])s2)cc1 | 99.2 |
| CC(C)c1nn(-c2c(Cl)cccc2Cl)c2nc(Cc3ccc(OCCO)cc3)nc(O)c12 | 98.8 |
| O=C(Nc1cccc(Nc2cc(Nc3cccc(C(F)(F)F)c3)ncn2)c1)C1CC1 | 99.5 |
| CCN(CC)CCCCN1c2ccccc2Oc2ccc(Cl)cc21 | 105 |

====

Target: PTK2B (human) (UniProt Q14289)
Sequence (Q14289 whole entry, looked up): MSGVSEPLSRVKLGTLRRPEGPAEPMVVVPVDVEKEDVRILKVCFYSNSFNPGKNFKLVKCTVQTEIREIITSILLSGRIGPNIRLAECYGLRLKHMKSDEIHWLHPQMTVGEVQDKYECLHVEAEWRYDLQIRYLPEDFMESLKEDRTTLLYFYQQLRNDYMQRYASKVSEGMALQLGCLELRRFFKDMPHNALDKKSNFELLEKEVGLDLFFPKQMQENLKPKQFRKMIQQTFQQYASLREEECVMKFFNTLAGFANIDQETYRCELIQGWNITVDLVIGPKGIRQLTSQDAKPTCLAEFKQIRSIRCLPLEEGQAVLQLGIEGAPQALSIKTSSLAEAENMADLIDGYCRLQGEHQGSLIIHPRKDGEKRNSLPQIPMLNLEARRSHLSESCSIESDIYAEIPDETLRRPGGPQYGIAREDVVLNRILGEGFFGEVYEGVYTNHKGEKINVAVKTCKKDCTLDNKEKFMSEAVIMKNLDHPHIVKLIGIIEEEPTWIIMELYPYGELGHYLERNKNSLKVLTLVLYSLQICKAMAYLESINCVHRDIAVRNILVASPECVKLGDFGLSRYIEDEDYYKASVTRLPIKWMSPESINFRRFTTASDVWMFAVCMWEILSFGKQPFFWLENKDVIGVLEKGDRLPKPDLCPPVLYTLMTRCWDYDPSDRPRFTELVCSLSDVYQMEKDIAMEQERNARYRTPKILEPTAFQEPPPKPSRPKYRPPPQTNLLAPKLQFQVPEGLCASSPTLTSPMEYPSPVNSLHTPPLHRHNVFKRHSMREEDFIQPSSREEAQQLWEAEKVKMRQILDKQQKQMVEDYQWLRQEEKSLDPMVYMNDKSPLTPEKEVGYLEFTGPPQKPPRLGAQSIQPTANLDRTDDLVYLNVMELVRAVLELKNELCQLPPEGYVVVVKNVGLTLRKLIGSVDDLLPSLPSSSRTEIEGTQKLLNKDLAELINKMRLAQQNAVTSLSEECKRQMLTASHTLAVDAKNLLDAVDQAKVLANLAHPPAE
Test: radiometric filter-binding kinase assay, Kinase HotSpot
Settings: compound 0.5 µM; ATP 10 µM
Reported residual activity values for a set of compounds
metric-name: residual activity (%)

| smiles-repr | units-symbol | experimental-value |
| --- | --- | --- |
| COc1cc2ncnc(N3CCN(C(=O)Nc4ccc(Oc5ccccc5)cc4)CC3)c2cc1OC | % | 91.2 |
| O=C(O)/C=C/c1cc(Br)c(Br)c(Br)c1Br | % | 93.3 |
| CN([C@@H](Cc1ccc(OS(=O)(=O)c2cccc3cnccc23)cc1)C(=O)N1CCN(c2ccccc2)CC1)S(=O)(=O)c1cccc2cnccc12 | % | 103 |
| COc1cc2ncc(-c3ccccc3)nc2cc1OC | % | 85.9 |
| O=C1Nc2ccccc2/C1=C1\Nc2ccccc2\C1=N/O | % | 65.8 |
| O=C1NC(=O)C(c2cn(CCCO)c3ncccc23)=C1c1cnccn1 | % | 94 |
| Nc1nnc2[nH]c3ccccc3nc1-2 | % | 92 |
| CC(C)c1nn(-c2c(Cl)cccc2Cl)c2nc(Cc3ccc(OCCO)cc3)nc(O)c12 | % | 96.1 |
| Cn1nc2c3c(cccc31)C(=O)c1ccccc1-2 | % | 102 |
| CN(C)C[C@H]1CCn2c(c(C3=C(c4cn(C)c5ccccc45)C(=O)NC3=O)c3ccccc32)C1 | % | 95.5 |
| Oc1ccc(Nc2nc(-c3ccc(Cl)cc3)cs2)cc1 | % | 100 |
| O=C1NC(=O)/C(=C\c2ccc3nccnc3c2)S1 | % | 106 |
| O=C(Nc1cccc(Nc2cc(Nc3cccc(C(F)(F)F)c3)ncn2)c1)C1CC1 | % | 89.6 |
| O=C(CCCc1ccc(-c2ccccc2F)cc1)Nc1ccc(O)cc1 | % | 98.8 |
| COc1ccc(CNC(=O)Nc2ncc([N+](=O)[O-])s2)cc1 | % | 83.1 |
| COc1ccc(OC)c2c(=S)c3ccccc3[nH]c12 | % | 92.7 |
| Cc1nc2cc3nc(-c4cccs4)cnc3cc2n1C | % | 96.4 |
